# subject.of.test: T1, human/cynomolgus monkey ROR1 protein (Acro Biosystems, Cat. No.: RO1-H522y) (human/cynomolgus monkey, UniProt Q01973 30-403)
# T1 construct: Bought SPR analyte
# test.method.notes: SPR (Biacore), antibody captured on anti-hIgG CM5 chip, ROR1 protein as analyte, 1:1 model
experimental.endpoint: koff (s⁻¹)
Please give a number only; it is taken to be in s⁻¹.

binder: ch137G11D10 (antibody, human IgG1, kappa, V domains shown, also called chimeric antibody of m137G11D10) VH: DVQLQESGPGLVKPSQSLSLTCTVTGYSITSDYAWNWIRQFPGNKLEWMGYITYSASTSYNPSLKSRISITRDTSKNQFFLQLNSVTTEDTATYYCARGAGTYYFDYWGQGSTLTVSS VL: DIVLTQSPASLSVATGEKVTIRCITSTDIDEDMNWYQQKPGEPPKLLISEDNSLRPGVPSRFSSSGYGTDFVLTIENTLSEDVADYYCLQTNNLPLTFGAGTKLEIKR
koff [s⁻¹]: 0.00315

Fill in the blank: the reported koff of ch135A2B10 (antibody, human IgG1, kappa, V domains shown, also called chimeric antibody of m135A2B10) VH: DVKLVESGGGLVTPEGSLKLSCAASGFAFSTYGMAWVRQTPEKRLEWVASIHKGGFSTYYPDNVKGRFTISRDNDKNTLYLQMSSLKSEDTAMYYCIRHDWDGAMDYWGQGTSVTVSS VL: DIVLTQSPSSMYASLGERVTITCKASQDINSYLNWFQQKPGKSPKTLIYRANRLVDGVPSRFSGSGSGQDYSLTISSLEYEDLGIYYCLQFDEFPYTFGGGTKLEIKR is ____.
0.000551
